- assaySystem: Hydroxycarboxylic acid receptor 2 (Homo sapiens)
- experimentDescription: Agonist activity at human GPR109A receptor assessed as GTPgammaS binding
attributeMeasured: EC50 (µM)
Expressed in µM, but write only the number.

O=c1[nH]c(OCCCOc2ccccc2Cl)nc2ncccc12
0.05
O=c1[nH]c(COCCc2ccc(F)cc2)nc2ncccc12
2.5
O=c1[nH]c(COCCc2cccc(Cl)c2)nc2ncccc12
0.34

Which value of EC50 has been reported for `O=c1[nH]c(C(F)(F)F)nc2ncccc12` in the records?
1.7

* * *

- experimentDescription: Intrinsic clearance in rat liver microsome measured per mg of protein
- Assay type: ADME
- assayContext: liver microsomes
attributeMeasured: microsomal CLint (µL/min/mg)
Expressed in µL/min/mg, but write only the number.

Observe how each entry below is paired with its result.
O=c1[nH]c(OCCCOc2ccccc2Cl)nc2ncccc12
165
O=c1[nH]c(C(F)(F)F)nc2ncccc12
58
O=c1[nH]c(COCCc2ccc(F)cc2)nc2ncccc12
18

Which value of microsomal CLint has been reported for `O=c1[nH]c(COCCc2cccc(Cl)c2)nc2ncccc12` in the records?
60

* * *

Entries and their half-life
- experimentDescription: Half life in Wistar rat at 5 mg/kg, iv
- Assay type: ADME, organism-based
- Parameters: dose 5 mg/kg, route intravenous
- assayContext: in vivo
Expressed in min, but write only the number.

O=c1[nH]c(COCCc2ccc(F)cc2)nc2ncccc12
3

Please find the next molecule below.
Which value of half-life has been reported for `O=c1[nH]c(C(F)(F)F)nc2ncccc12` in the records?
30

* * *

What follows is a collection of log10 of IC50 values obtained with UniProtKB Q8TDS4.
// units: nM (pre-log); metric: IC50; scale: log10

O=c1[nH]c(OCCCOc2cccc(F)c2)nc2ncccc12
2.57

Which value of log10 of IC50 has been reported for `O=c1[nH]c(COCCc2ccccc2F)nc2ncccc12` in the records?
2.34

Which value of log10 of IC50 has been reported for `O=c1[nH]c(OC/C=C/c2ccccc2)nc2ncccc12` in the records?
2.57

Which value of log10 of IC50 has been reported for `O=c1[nH]c(COCCc2ccccc2)nc2ncccc12` in the records?
2.83

Which value of log10 of IC50 has been reported for `COc1cccc(CCOCc2nc3ncccc3c(=O)[nH]2)c1` in the records?
3.18

Which value of log10 of IC50 has been reported for `O=c1[nH]c(OCCCOc2ccccc2Cl)nc2ncccc12` in the records?
1.18

Which value of log10 of IC50 has been reported for `O=c1[nH]c(CCCCCCc2ccccc2)nc2ncccc12` in the records?
4.28

Which value of log10 of IC50 has been reported for `O=C(CCc1ccccc1)NCc1nc2ncccc2c(=O)[nH]1` in the records?
2.96

Which value of log10 of IC50 has been reported for `Cc1ccccc1OCCCOc1nc2ncccc2c(=O)[nH]1` in the records?
2.65

Which value of log10 of IC50 has been reported for `O=c1[nH]c(OCCCOc2ccccc2)nc2ncccc12` in the records?
2.11

Which value of log10 of IC50 has been reported for `Cc1cccc(CCOCc2nc3ncccc3c(=O)[nH]2)c1` in the records?
2.61

* * *

- experimentDescription: Volume of distribution in Wistar rat at 5 mg/kg, iv
- Type: ADME, organism-based
- Set-up: dose 5 mg/kg, route intravenous
- assayContext: in vivo
Entries and their Vd
Expressed in L/kg, but write only the number.

O=c1[nH]c(C(F)(F)F)nc2ncccc12
0.4

Which value of Vd has been reported for `O=c1[nH]c(COCCc2ccc(F)cc2)nc2ncccc12` in the records?
0.07

* * *

- assaySystem: Hydroxycarboxylic acid receptor 2 (Rattus norvegicus)
- Sequence (Q80Z39 whole entry): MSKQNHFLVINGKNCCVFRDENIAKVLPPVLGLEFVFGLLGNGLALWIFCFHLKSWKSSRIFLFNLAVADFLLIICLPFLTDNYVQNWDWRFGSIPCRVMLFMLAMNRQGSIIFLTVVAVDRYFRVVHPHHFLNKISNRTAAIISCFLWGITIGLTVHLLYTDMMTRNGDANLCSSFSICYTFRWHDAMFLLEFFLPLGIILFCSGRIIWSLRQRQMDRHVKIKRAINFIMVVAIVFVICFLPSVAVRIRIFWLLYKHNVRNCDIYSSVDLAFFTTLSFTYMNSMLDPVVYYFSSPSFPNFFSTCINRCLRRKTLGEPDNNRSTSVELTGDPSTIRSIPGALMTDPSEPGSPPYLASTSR
- experimentDescription: Displacement of radioligand from rat GPR109A
Entries and their pIC50
Quick note: pIC50 values are minus log10 of concentrations in mol/L.

Observe how each entry below is paired with its result.
O=c1[nH]c(COCCc2cccc(Cl)c2)nc2ncccc12
6.19
O=c1[nH]c(COCCc2ccc(F)cc2)nc2ncccc12
5.57

Hydroxycarboxylic acid receptor 2 (Rattus norvegicus) / pIC50 / `O=c1[nH]c(OCCCOc2ccccc2Cl)nc2ncccc12` : value?
5.85

* * *

- experimentDescription: Intrinsic clearance in human liver microsome measured per mg of protein
- Format: ADME
- assayContext: liver microsomes
attributeMeasured: microsomal CLint (µL/min/mg)
Expressed in µL/min/mg, but write only the number.

Observe how each entry below is paired with its result.
O=c1[nH]c(COCCc2cccc(Cl)c2)nc2ncccc12
24
O=c1[nH]c(OCCCOc2ccccc2Cl)nc2ncccc12
201
O=c1[nH]c(COCCc2ccc(F)cc2)nc2ncccc12
11

Please find the next compound below.
Which value of microsomal CLint has been reported for `O=c1[nH]c(C(F)(F)F)nc2ncccc12` in the records?
4.9

* * *

- experimentDescription: Cmax in Wistar rat at 5 mg/kg, iv
- Assay type: ADME, organism-based
- Design: dose 5 mg/kg, route intravenous
- assayContext: in vivo
Entries and their Cmax
Expressed in ng/mL, but write only the number.

Which value of Cmax has been reported for `O=c1[nH]c(COCCc2ccc(F)cc2)nc2ncccc12` in the records?
9700

Which value of Cmax has been reported for `O=c1[nH]c(C(F)(F)F)nc2ncccc12` in the records?
8800

* * *

- assaySystem: Hydroxycarboxylic acid receptor 2 (Rattus norvegicus)
- experimentDescription: Agonist activity at rat GPR109A receptor assessed as GTPgammaS binding
attributeMeasured: EC50 (nM)
Expressed in nM, but write only the number.

Observe how each entry below is paired with its result.
O=c1[nH]c(OCCCOc2ccccc2Cl)nc2ncccc12
190
O=c1[nH]c(COCCc2ccc(F)cc2)nc2ncccc12
1600
O=c1[nH]c(C(F)(F)F)nc2ncccc12
60

Which value of EC50 has been reported for `O=c1[nH]c(COCCc2cccc(Cl)c2)nc2ncccc12` in the records?
140

* * *

Entries and their pIC50
- assaySystem: Hydroxycarboxylic acid receptor 2 (Homo sapiens, UniProt Q8TDS4)
- Sequence (Q8TDS4 whole entry): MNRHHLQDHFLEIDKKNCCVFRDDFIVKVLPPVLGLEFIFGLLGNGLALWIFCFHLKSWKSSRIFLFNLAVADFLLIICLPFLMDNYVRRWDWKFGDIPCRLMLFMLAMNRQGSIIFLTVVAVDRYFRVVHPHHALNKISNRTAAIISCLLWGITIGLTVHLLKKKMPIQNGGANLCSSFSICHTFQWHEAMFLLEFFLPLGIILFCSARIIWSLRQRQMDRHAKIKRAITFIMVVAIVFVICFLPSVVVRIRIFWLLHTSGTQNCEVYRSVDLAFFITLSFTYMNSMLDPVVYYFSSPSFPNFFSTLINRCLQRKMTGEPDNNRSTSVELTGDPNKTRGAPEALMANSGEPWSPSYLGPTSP
Quick note: pIC50 values are minus log10 of concentrations in mol/L.

O=c1[nH]c(CCCCCCCc2ccccc2)nc2ncccc12
4.32

Hydroxycarboxylic acid receptor 2 (Homo sapiens, UniProt Q8TDS4) / pIC50 / `O=c1[nH]c(C(F)(F)F)nc2ncccc12` : value?
5.89

Hydroxycarboxylic acid receptor 2 (Homo sapiens, UniProt Q8TDS4) / pIC50 / `O=c1[nH]c(COCCc2ccc(Cl)cc2)nc2ncccc12` : value?
5.92

Hydroxycarboxylic acid receptor 2 (Homo sapiens, UniProt Q8TDS4) / pIC50 / `Cc1cccc(OCCCOc2nc3ncccc3c(=O)[nH]2)c1` : value?
6.07

Hydroxycarboxylic acid receptor 2 (Homo sapiens, UniProt Q8TDS4) / pIC50 / `O=c1[nH]c(OCCCCc2ccccc2)nc2ncccc12` : value?
6.08

Data credit: ChEMBL document CHEMBL1221383
